Test: soluble fraction after stress (log2 fold change); higher = more stays soluble; pooled small domains, quantitative proteomics;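 also: 20 min heating vs room temperature control held 20 min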
Conditions: stress: 75 degC
The following sequences are shown together with reported soluble fraction (log2) values.

# biopolymer sequence, soluble fraction (log2)
measured = [
    ("HMNIILFLDELHRLLSDLPPEERNQAIKYYEDYFEDAGPENEQAILKELGSPQELANQIKATT", -0.94),
    ("HMISKQQRQALILDIIQKQSITSQEALLTELQRHHVMTTQTTVSRDIRALGIVRIKDVNGELSYQQLQ", -2.69),
    ("HMKKVIEFKDVSFAFEKKPILQDFNLLVQNKDRIGIVGDNGVGKSTLLNLIAERLQPQSGQVII", 0.111),
    ("HMSYQFKIKNNAAVEVTVSEKNNLLGSTYGDKATVAAGMEKNVTFYTDKPDVVVDTNGNFTITVHDKEIII", 0.0601),
]
